Value source: ChEMBL document CHEMBL1137272

# test-system: Potassium voltage-gated channel subfamily A member 5 (Homo sapiens, UniProt P22460)
# Sequence (P22460 whole entry): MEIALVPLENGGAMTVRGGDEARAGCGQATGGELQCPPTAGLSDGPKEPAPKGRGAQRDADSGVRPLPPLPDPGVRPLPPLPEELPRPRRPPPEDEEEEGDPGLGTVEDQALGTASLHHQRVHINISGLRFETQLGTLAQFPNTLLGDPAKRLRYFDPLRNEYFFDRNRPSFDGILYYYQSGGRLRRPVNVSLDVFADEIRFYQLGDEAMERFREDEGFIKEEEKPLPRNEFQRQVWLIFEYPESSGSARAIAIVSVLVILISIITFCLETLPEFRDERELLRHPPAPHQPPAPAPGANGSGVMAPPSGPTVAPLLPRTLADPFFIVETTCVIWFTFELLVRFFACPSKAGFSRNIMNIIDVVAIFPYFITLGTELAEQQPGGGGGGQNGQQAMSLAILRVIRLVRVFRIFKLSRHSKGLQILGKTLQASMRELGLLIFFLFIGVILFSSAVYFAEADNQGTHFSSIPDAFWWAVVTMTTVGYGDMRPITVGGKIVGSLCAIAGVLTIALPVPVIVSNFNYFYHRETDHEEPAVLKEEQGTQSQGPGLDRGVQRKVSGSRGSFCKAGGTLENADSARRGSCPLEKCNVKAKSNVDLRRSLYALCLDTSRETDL
# assay-protocol: Inhibition of Kv1.5 expressed in LTK- cells by whole cell patch clamp assay at 1uM
# Type: functional, cell-based
Calls of active or inactive are those of the source. The rule behind the calls is not given here.
observed-property: inhibition

Reported inhibition (Potassium voltage-gated channel subfamily A member 5 (Homo sapiens, UniProt P22460)) for entry CCc1c2c(n(C)c1CC)CCC/C2=N\N(C)C(=O)Nc1ccccc1 is 84%

Reported inhibition (Potassium voltage-gated channel subfamily A member 5 (Homo sapiens, UniProt P22460)) for entry CCc1[nH]c2c(c1CC)/C(=N/NC(=O)Nc1ccc(Cl)cc1)CCC2 is 60%

Reported inhibition (Potassium voltage-gated channel subfamily A member 5 (Homo sapiens, UniProt P22460)) for entry CCc1c(C)[nH]c2c1/C(=N/N(C)C(=O)Nc1ccc(Cl)cc1)CCC2 is 93%

Reported inhibition (Potassium voltage-gated channel subfamily A member 5 (Homo sapiens, UniProt P22460)) for entry CCc1c2c(n(C)c1CC)CCC/C2=N\N(C)C(=O)Nc1ccc(C(C)=O)cc1 is 90%

New cases:
Reported inhibition (Potassium voltage-gated channel subfamily A member 5 (Homo sapiens, UniProt P22460)) for entry Cc1[nH]c2c(c1C)/C(=N/NC(=O)Nc1ccc(Cl)cc1)CCC2 is 67%

Reported inhibition (Potassium voltage-gated channel subfamily A member 5 (Homo sapiens, UniProt P22460)) for entry CCc1c(C)[nH]c2c1/C(=N/NC(=S)Nc1ccc(C(F)(F)F)cc1)CCC2 is 52%

Reported inhibition (Potassium voltage-gated channel subfamily A member 5 (Homo sapiens, UniProt P22460)) for entry CCc1[nH]c2c(c1CC)/C(=N/NC(=O)Nc1ccc(OC)cc1)CCC2 is 85%

Reported inhibition (Potassium voltage-gated channel subfamily A member 5 (Homo sapiens, UniProt P22460)) for entry CCc1[nH]c2c(c1CC)/C(=N/NC(=O)Nc1ccc(SC)cc1)CCC2 is 56%

Reported inhibition (Potassium voltage-gated channel subfamily A member 5 (Homo sapiens, UniProt P22460)) for entry Cc1[nH]c2c(c1C)/C(=N/NC(=O)Nc1ccc(C(F)(F)F)cc1)CCC2 is 63%

Reported inhibition (Potassium voltage-gated channel subfamily A member 5 (Homo sapiens, UniProt P22460)) for entry CCc1c(C)[nH]c2c1/C(=N/NC(=S)Nc1cccc(C(F)(F)F)c1)CCC2 is 91%

Reported inhibition (Potassium voltage-gated channel subfamily A member 5 (Homo sapiens, UniProt P22460)) for entry CCc1c(C)[nH]c2c1/C(=N/NC(=S)Nc1cccc(C)c1)CCC2 is 64%

Reported inhibition (Potassium voltage-gated channel subfamily A member 5 (Homo sapiens, UniProt P22460)) for entry O=C(N/N=C1\CCCc2[nH]ccc21)Nc1ccccc1 is inactive

Reported inhibition (Potassium voltage-gated channel subfamily A member 5 (Homo sapiens, UniProt P22460)) for entry Cc1[nH]c2c(c1C(C)C)/C(=N/NC(=O)Nc1ccccc1)CCC2 is inactive

Reported inhibition (Potassium voltage-gated channel subfamily A member 5 (Homo sapiens, UniProt P22460)) for entry O=C(N/N=C1\CCCC2=C1C1CCCCC1N2)Nc1ccccc1 (stereo unspecified) is 20%

Reported inhibition (Potassium voltage-gated channel subfamily A member 5 (Homo sapiens, UniProt P22460)) for entry CCc1c(C)[nH]c2c1/C(=N/NC(=S)Nc1cccc(Cl)c1)CCC2 is 78%

Reported inhibition (Potassium voltage-gated channel subfamily A member 5 (Homo sapiens, UniProt P22460)) for entry CCc1c(C)[nH]c2c1/C(=N/NC(=O)Nc1ccc(C)cc1)CCC2 is 50%
